- test-target: rat ASCT2 (Rattus norvegicus, UniProt D3ZJ25)
- Construct: The coding region of the cDNA was subcloned into the EcoRI site of the pBK-CMV vector; expressed in transfected cells; host or cells: HEK293 (human embryonic kidney), transient transfection, pBK-CMV vector
- protocol-details: Whole-cell patch-clamp recording of ASCT2-associated anion current in transfected HEK293 cells
- Assay type: cell-based
- measurement-setup: apparent affinity, inhibition of leak anion conductance; read-out: Ki
pKi: −log10 of the molar value.
quantity-name: pKi

Name the reported pKi value associated with the compound N[C@H](C(=O)O)[C@H](O)c1ccc(O)c(O)c1 [L-DOPS, reference compound]
~2.70

* * *

- test-target: rat ASCT2 (Rattus norvegicus)
- Construct: The coding region of the cDNA was subcloned into the EcoRI site of the pBK-CMV vector; expressed in transfected cells; host or cells: HEK293 (human embryonic kidney), transient transfection, pBK-CMV vector
- protocol-details: Whole-cell patch-clamp recording of ASCT2-associated anion current in transfected HEK293 cells
- Assay type: cell-based
- measurement-setup: absence of alanine; read-out: apparent Ki in the absence of alanine
quantity-name: Ki (µM)
Note: unit µM is implicit; provide only the numeric part.

Suppose we examine the compound O=C(O)C1CC(Cc2ccccc2F)CN1 (stereo not shown) ; what Ki value has been reported?
87

* * *

- test-target: rat ASCT2 (Rattus norvegicus)
- Construct: The coding region of the cDNA was subcloned into the EcoRI site of the pBK-CMV vector; expressed in transfected cells; host or cells: HEK293 (human embryonic kidney), transient transfection, pBK-CMV vector
- Sequence (D3ZJ25 1-555): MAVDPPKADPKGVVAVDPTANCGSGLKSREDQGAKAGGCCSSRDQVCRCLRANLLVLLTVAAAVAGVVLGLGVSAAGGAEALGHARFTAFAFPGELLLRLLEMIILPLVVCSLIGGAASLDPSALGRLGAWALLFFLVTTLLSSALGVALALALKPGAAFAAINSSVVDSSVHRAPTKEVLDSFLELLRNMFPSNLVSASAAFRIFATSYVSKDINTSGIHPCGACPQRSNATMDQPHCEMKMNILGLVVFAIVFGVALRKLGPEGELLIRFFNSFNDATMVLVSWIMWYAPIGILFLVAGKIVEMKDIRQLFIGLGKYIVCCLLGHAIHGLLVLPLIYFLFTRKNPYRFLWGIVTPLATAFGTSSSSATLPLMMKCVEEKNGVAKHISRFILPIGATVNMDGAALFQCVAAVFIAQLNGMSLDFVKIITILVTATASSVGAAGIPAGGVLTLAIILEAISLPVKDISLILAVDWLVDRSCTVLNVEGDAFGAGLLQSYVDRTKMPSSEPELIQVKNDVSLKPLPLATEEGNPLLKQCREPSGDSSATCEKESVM
- protocol-details: Whole-cell patch-clamp recording of ASCT2-associated anion current in transfected HEK293 cells
- Type: cell-based
- measurement-setup: whole-cell anion current, membrane potential 0 mV, internal 130 mM NaSCN and 10 mM alanine; negative = outward current (inhibitor)
quantity-name: Imax, maximum currents relative to 1 mM alanine

CC(C)(S)[C@@H](N)C(=O)O [Penicillamine, reference compound] :: 0.68 ± 0.08
N[C@H](C(=O)O)[C@H](O)c1ccc(O)c(O)c1 [L-DOPS, reference compound] :: -0.03 ± 0.01
N[C@H](C(=O)O)[C@@H]1CC(Cl)=NO1 [Acivicin, reference compound] :: 0.45 ± 0.03
C[C@H](N)C(=O)O [Alanine] :: 1
NC(CCl)C(=O)O (stereo not shown) [Chloroalanine] :: 1.28 ± 0.22
O=C(O)C1CC(Cc2ccccc2F)CN1 (stereo not shown) [γ-FBP] :: -0.64 ± 0.13

Field: next molecule
Lab note: need Imax, maximum currents relative to 1 mM alanine with rat ASCT2 (Rattus norvegicus) for entry `NC1(C(=O)O)COC1` , please look it up.
1.17 ± 0.13

* * *

- test-target: rat ASCT2 (Rattus norvegicus, UniProt D3ZJ25)
- Construct: The coding region of the cDNA was subcloned into the EcoRI site of the pBK-CMV vector; expressed in transfected cells; host or cells: HEK293 (human embryonic kidney), transient transfection, pBK-CMV vector
- protocol-details: Whole-cell patch-clamp recording of ASCT2-associated anion current in transfected HEK293 cells
- Type: cell-based
- measurement-setup: apparent Km for the active compounds from anion current dose response; called Ki in text for the inhibitors L-DOPS and γ-FBP
quantity-name: log10 of Km (log10 of the value in µM)
Hey, these are logged values: log10 of Km, µM being the unit before logging.

N[C@H](C(=O)O)[C@@H]1CC(Cl)=NO1 [Acivicin, reference compound] :: 3.71
NC(CCl)C(=O)O (centres unmarked) :: 2.95
C[C@H](N)C(=O)O :: 2.61
O=C(O)[C@H]1NCC[C@H]1O [cis-3-hydroxyproline] :: 1.28
O=C(O)C1CC(Cc2ccccc2F)CN1 (centres unmarked) :: 1.94
CC(C)(S)[C@@H](N)C(=O)O [Penicillamine, reference compound] :: 3.14
NC1(C(=O)O)COC1 :: 2.34

Consider now this further compound.
Fill in the blank: the reported log10 of Km of N[C@H](C(=O)O)[C@H](O)c1ccc(O)c(O)c1 [L-DOPS, reference compound] is ____.
3.29
